Assay: Max solubility of reference chemicals in cell medium
Details: given for non-toxic compounds insoluble at 500 μM
# Max solubility >= 100 µM gives class 1, anything below gives class 0

{"Molecule": "[Cl][Pt-2]([Cl])([Cl])([Cl])([Cl])[Cl].[NH4+].[NH4+] [Ammonium hexachloroplatinate]", "Label": "class 0"}
{"Molecule": "O=C=Nc1ccc(Cc2ccc(N=C=O)cc2)cc1 [Methylene diphenol diisocyanate]", "Label": "class 0"}
{"Molecule": "O=C(O)c1ccc2c(c1)C(=O)OC2=O [Trimellitic anhydride]", "Label": "class 1"}

--- query ---
### Prompt Hi, just wondering whether O=C1OC(=O)c2ccccc21 [Phtalic Anhydride] shows Max solubility of 100 µM or higher.
### Response class 1

All figures here come from patent US20150111771A1.
